Sourced from a melting point compilation (Tetko et al.; mined from patent text by program, amines drawn as free bases though some values may be those of a salt)

MEASURED METRIC: melting point

COC(=O)CC(NSc1ccccc1[N+](=O)[O-])C(=O)O (stereo not given) : 108 to 109 °C

INPUT: So what's the measured melting point for this one? Cc1cccc(-c2ccc(NC(=O)Nc3ccc(Oc4cc(N)ncn4)cc3)cc2C(F)(F)F)n1
OUTPUT: 130 to 133 °C

INPUT: Query: melting point; subject: CCOC(=O)Cc1ccccc1N[C@@H](CCC(N)=O)C(=O)O
OUTPUT: 171 to 172 °C

###

melting point overview

// worked examples, melting point included
Nc1nc2ncnc(NCc3ccco3)c2[nH]1 : 128 to 130 °C
O=S1N=C(NCCCN(Cc2ccc(F)cc2)c2ccccn2)C(NCc2ccncc2)=N1 (stereo not given) : 160 to 163 °C
COc1ccc(OC2SCC(O)C(O)C2O)cn1 (stereo not given) : 159 to 161 °C
C=CCc1c(Br)cc(C(C)(C)c2cc(Br)c(CC=C)c(Br)c2)cc1Br : 114 °C
CCOC(=O)C1(C)CN(Cc2ccccc2)C(=O)C(=C2SC=CS2)C1=O (stereo not given) : 111 to 113 °C

INPUT: Using the record for CN(C)c1ccc(C(N)=NNc2ccc([N+](=O)[O-])cc2)cc1 , report its melting point.
OUTPUT: 174 °C

INPUT: What value of melting point has been reported for the following compound? CCc1cc(Cc2cc(C)c(N)c(CC)c2)cc(C)c1N
OUTPUT: 85 to 86 °C

INPUT: // melting point lookup, key: N=C(Nc1ccc(F)c(NC(=O)/C=C/c2ccccc2Cl)c1)c1ccccc1
OUTPUT: 189 to 191 °C

INPUT: May I ask what melting point has been recorded for C=CON=C(C(=O)OCC)c1csc(NC(c2ccccc2)(c2ccccc2)c2ccccc2)n1 ?
OUTPUT: 114 °C

###

MEASURED METRIC: melting point

Example cases with answers are listed next.
CCC(=O)C(=Cc1cc(O)c(O)c(C#N)c1)C(=O)CC : 165 to 173 °C
N#CC(=C(Nc1cc(C(F)(F)F)cc(C(F)(F)F)c1)NC1CCCC1)S(=O)(=O)c1ccc(Cl)cc1 : 199 to 200 °C
COC(=O)c1ccc2c(c1)Sc1cc3c(cc1CC2)CCC3 : 110 to 111 °C

INPUT: Fill in: melting point of C1=CCC2=C(C1)CCc1ccccc1C2 is ___
OUTPUT: 42.5 to 43 °C

INPUT: # get_value(readout='melting point', item= O=C(O)c1cc(NCc2ccc(Cl)cc2)ccc1O )
OUTPUT: 227 to 228 °C

###

MEASURED METRIC: melting point

O=C(Nc1ccccc1N1CCc2cc(Cl)ccc21)c1ccccc1 : 44 to 46 °C

INPUT: What does the data say about its melting point? Entry: COC(=O)NCc1cc(C(C)=NOCc2ccc(F)cc2)ccc1Cl
OUTPUT: 101 to 103 °C

INPUT: Could you share which melting point value was measured for Fc1cccc(OC2CN(C3CCC(c4c[nH]c5cc(F)ccc45)CC3)C2)c1 (stereo not given) ?
OUTPUT: 117 to 123 °C

INPUT: Dear colleague, I am looking for the recorded melting point of the following compound: O=C(O)CCNC(=O)CCNC(=O)N1CCC2(CCNCC2)CC1
OUTPUT: 105 to 110 °C

INPUT: Endpoint output: melting point of CC(C)(C)OC(=O)[C@@H]1C[C@H](c2ccccc2)CN1 . Value?
OUTPUT: 62 °C

INPUT: Need melting point of CCC(=O)N1Cc2cn[nH]c2-c2cc(N)ccc21 , thanks.
OUTPUT: 218 to 220 °C

###

MEASURED METRIC: melting point

INPUT: Look up melting point: CCC(=O)c1ccsc1N
OUTPUT: 140 to 142 °C

INPUT: I have this compound here, O=C(O)CCC(NC(=O)c1ccc(-c2ccccc2OC2OC(CO)C(O)C(O)C2O)cc1)C(=O)O (stereo not drawn) , and I need its recorded melting point.
OUTPUT: 118 to 121 °C

INPUT: Endpoint output: melting point of COc1ccc(C2OCC(COC(C(F)(F)F)(C(F)(F)F)C(F)(F)F)(COC(C(F)(F)F)(C(F)(F)F)C(F)(F)F)CO2)cc1 . Value?
OUTPUT: 89 to 90 °C

INPUT: Look up melting point for this compound: CCc1cccc(C)c1CNc1cc(C(=O)OC)cn2c(C)nnc12
OUTPUT: 214 °C

INPUT: Need melting point, item COc1cccc(Nc2cnc3c(NCc4ccccc4)nc(NCCO)nc3c2)c1
OUTPUT: 110 to 111 °C

###

MEASURED METRIC: melting point

Use these answered entries as a reference point.
N#Cc1ccccc1C(C#N)c1ccc(F)cc1 (stereo not given) : 87 to 89 °C
COC(=O)COc1ccc2ccc(C(C)=O)c(O)c2c1 : 133 to 135 °C

INPUT: Looking for the measured melting point of CCOC(=O)/C=C/C(C)(C)NC(=O)OC(C)(C)C , can you help?
OUTPUT: 40 to 41 °C

INPUT: Look up melting point for this molecule: COc1ccc(-c2ccoc2)c2c1c(CCN(C)C)cn2C
OUTPUT: 80 to 81 °C

INPUT: Recorded melting point of COc1cc2nc(-c3cc(C)c(OCCO)c(C)c3)[nH]c(=O)c2cc1OC , please.
OUTPUT: > 300 °C

INPUT: Return reported melting point; argument: CC(=NOCCOc1ccc(CC2SC(=O)NC2=O)cc1)c1ccc(-c2ccccc2)cc1 (stereo not given)
OUTPUT: 164 to 166 °C

INPUT: Dear colleague, I am looking for the recorded melting point of the following molecule: CCn1nc(C)c2c1C(=O)NCC(c1ccc(NS(=O)(=O)c3ccccc3S(=O)(=O)c3ccccc3)cc1)=N2
OUTPUT: > 230 °C

INPUT: # get_value(readout='melting point', item= COCCc1nc2c(N)nc3ccccc3c2n1CCCNC(=O)c1ccccc1 )
OUTPUT: 183 to 186 °C

INPUT: Look up melting point for this molecule: CC12CCC3c4ccc(OCc5ccccc5)cc4CCC3C1CCC2O (stereo not given)
OUTPUT: 97 to 100 °C

INPUT: GET /values?readout=melting point&item= O=C(NC(Cc1ccc(OCc2ccccc2)cc1)C(=O)O)c1cn2nc(SCc3ccccc3)ccc2n1 (stereo not given)
OUTPUT: 178 to 179 °C

###

MEASURED METRIC: melting point

INPUT: Request the reported melting point associated with O=C(NCCCc1ccccc1)Nc1ccccn1
OUTPUT: 127 to 128 °C

INPUT: Could you share which melting point value was measured for Clc1ccc(N2CCCCC2)cc1 ?
OUTPUT: 69 °C

INPUT: Form field: reported melting point of CC(C)(C)c1ccc(C(=O)Nc2ccc(N)cc2)cc1
OUTPUT: 111 to 113 °C

INPUT: Which melting point value belongs to Cc1cccc(C)c1N(CC(=O)NCCC(=O)O)C(=O)c1ccc(Cl)cc1 ?
OUTPUT: 154 to 156 °C

INPUT: Please give the measured melting point for this compound: Cc1cc2c(cc1Cl)C(c1ccccc1Cl)C(=O)N2 (stereo unspecified)
OUTPUT: 203 to 209 °C

INPUT: Item under review: CCc1cccc2c3c([nH]c12)C(CC)(CC(=O)OC)OCC3NC=O (stereo unspecified) . Reported melting point?
OUTPUT: 154 to 156 °C

INPUT: Field request: melting point | item: O=C1CNc2ncc(I)cc2N1Cc1ccccc1OC(F)(F)F
OUTPUT: 235 °C

INPUT: Find the recorded melting point belonging to COc1cc(I)c(C=O)cc1OC(C)C and report it.
OUTPUT: 75 to 76 °C

INPUT: Entry under review: CC(C)(C)OC(=O)N1CCC2(CC1)CSC1=C(O2)c2cc(-c3ccccc3C(F)(F)F)ccc2C(=O)C1=O . Reported melting point?
OUTPUT: 223 to 225 °C

INPUT: Which melting point value belongs to Cc1csc2ccc(CO)cc12 ?
OUTPUT: 51 to 53 °C

INPUT: What measured melting point goes with O=C(O)CCCCCCc1ccc(CCNC(=O)c2ccc(Cl)cc2)cc1 ?
OUTPUT: 140 to 143 °C

###

MEASURED METRIC: melting point

INPUT: Which value of melting point has been reported for CC(=O)NCC1CN(c2ccc(N3CCN(c4nc5cccc(F)c5o4)CC3)c(F)c2)C(=O)O1 (stereo not given) in the records?
OUTPUT: 201 to 202 °C

INPUT: Please give the measured melting point for this compound: CCOCc1nc2c(N)nc3cc(-n4ccnc4)ccc3c2n1CCCOC
OUTPUT: 168 to 169 °C

INPUT: Can you share its melting point? I mean this compound: CC(=O)N(C)c1cccc(-c2nc(=O)c3ccccc3s2)n1
OUTPUT: 218 to 220 °C

INPUT: Name the reported melting point value associated with the compound Nc1nc2c(ncn2C2CCC(CO)O2)c(=O)[nH]1 (stereo not given)
OUTPUT: > 250 °C

INPUT: Request the reported melting point associated with Cc1cc(CCCCCOc2c(Cl)cc(C3=NCCC3)cc2Cl)on1
OUTPUT: 57 to 59 °C
